target: Alpha-bungarotoxin (Bungarus multicinctus); assay: alpha-bungarotoxin binders on microarray, profiling panel, artefact control for SMM control protein annotation, biochemical, small-molecule microarray, Alexa647 label, 635/667 nm fluorescence (AID 1117); settings: alpha-BTX-A647 binding fluorescence, higher = more signal
I'd appreciate it if you could label each record using composite z-score and these ranges: band A (below 0.1), band B (0.1 to below 0.9), band C (0.9 or more)

Worked cases, answers included:
>>> class_label("CCN(CC)c1ccc(N2CC=CC34O[C@@H]5C=CCCOC(=O)C5[C@H]3C(=O)N(CCO)[C@@H]4C2=O)cc1 (stereo partly specified)")
"band B"
>>> class_label("COc1ccc(C(=O)Nc2cccc(CN3C(=O)[C@@]4(O[C@@H](CC(=O)N(CCO)Cc5ccccc5)[C@H]([Si](C)(C)c5ccc(OC)cc5)[C@H]4C)c4ccccc43)c2)cc1")
"band B"
>>> class_label("COC(=O)[C@@]1(Cc2ccccc2CN=[N+]=[N-])N=C(c2ccc(OCCCO)cc2)O[C@H]1c1ccccc1CN=[N+]=[N-]")
"band A"

Into which bin does this compound go? `COCC(=C=CC[C@@H](O)c1ccc(OCCO)cc1)CCO` band A

---

test system: Chordin-like protein 2 (CHRDL2); assay: CHRDL2 small-molecule binders, primary screen, biochemical, small-molecule microarray, 635 nm fluorescence (AID 1126); conditions: small-molecule microarray binding, fluorescence 635 nm; higher = more signal;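 note: printed compound slides probed with Chrdl2 protein at 4 µg/mL for 1 h at 4 C; score merges 667 nm emission intensity with signal to noise over three replicate slides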
assay_endpoint: composite z-score
Answer with the value's number alone.

Field composite z-score (Chordin-like protein 2 (CHRDL2)), entry `CCOC(=O)C1=C[C@@H](c2ccccc2)N(S(=O)(=O)c2ccc(C)cc2)[C@H]1c1ccccc1` : 0.512

Measured composite z-score for this entry `C=CCOC(=O)[C@H]1[C@@H]2C(=O)O[C@@H](c3ccccc3)[C@@H](c3ccccc3)N2[C@@H](c2ccc(OCCOC(=O)[C@H]3C[C@H]4C(=O)N[C@@H](CCCCNC(C)=O)C(=O)N4[C@H]3c3cccc(OCCO)c3)cc2)[C@]12C(=O)Nc1ccc(I)cc12` on Chordin-like protein 2 (CHRDL2): 0.736

Chordin-like protein 2 (CHRDL2) composite z-score of `CCOC(=O)C=Cc1ccccc1O` is 0.0871

The observed composite z-score for COC(=O)C1=CC(CCCO)=CC(C)N(Cc2cccc(OC(F)(F)F)c2)C=C1C(=O)OC (stereo unspecified) when tested with Chordin-like protein 2 (CHRDL2) stands at -0.595

Considering `O=C1[C@@]23C=C(Br)[C@H](C[C@@H]2COC3)[C@@]12CO2` , its composite z-score with Chordin-like protein 2 (CHRDL2) was recorded as 0.532

The recorded composite z-score with Chordin-like protein 2 (CHRDL2) for C=CCC(OC(C)=O)[C@@H]1[C@@H](N(Cc2cc3ccccc3o2)C(=O)c2ccc(-c3ccccc3)cc2)c2cc(OCCCO)ccc2N1C(=O)Cc1ccc(OC)cc1 (stereo partly specified) was 0.186

---

test: small-molecule binders of probe aNOTCH2, primary screen, biochemical, small-molecule microarray, 635/667 nm fluorescence (AID 1121); conditions: higher = more signal;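 note: score merges feature fluorescence read at 667 nm with its signal to noise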
compounds and their reported composite z-score
// print number alone

>>> meas_value("CCOC(=O)C1=CCC(c2ccco2)N(S(=O)(=O)c2ccc(C)cc2)C1 (stereo unspecified)")
0.0006

Documented composite z-score of `COc1ccc([Si](C)(C)[C@@H]2[C@@H](CC(=O)N3Cc4ccccc4C[C@H]3CO)O[C@]3(C(=O)N(Cc4ccc(N5CCC5=O)cc4)c4ccccc43)[C@H]2C)cc1` : -0.234

Entry `O=C1O[C@H](c2ccccc2)[C@H](c2ccccc2)N2[C@H]1[C@@H](C(=O)N1CCCCCCC1)[C@]1(C(=O)Nc3ccc(C#CC4(O)CCCCCC4)cc31)[C@H]2c1ccccc1OCCO` — recorded composite z-score = 1.13

# composite z-score (compound: O=C1C2C=CC(C(O)c3ccc(I)cc3)N(Nc3ccccc3)C2C(=O)N1c1ccccc1 (stereo unspecified) ) is 0.11

Kindly note the recorded composite z-score for `COc1cc2c(cc1OC)CN(C(=O)[C@@H]1[C@H]3C(=O)O[C@H](c4ccccc4)[C@H](c4ccccc4)N3[C@H](c3ccc(O)cc3)[C@@]13C(=O)Nc1ccc(C#CCCO)cc13)CC2` , which is -0.113

Recorded composite z-score (compound `COCCOC(=O)N1C(=O)[C@@]2(c3cc(C#CCNC(N)=O)ccc31)[C@H](c1ccc(OCCO)cc1)N1[C@H](c3ccccc3)[C@H](c3ccccc3)OC(=O)[C@H]1[C@@H]2C(=O)NC[C@H](O)c1ccccc1` ): -0.013

Measured composite z-score of `C=C[C@@H](OC)[C@H](OC(=O)Nc1ccc(SC)cc1)c1ccc(OCCO)cc1` : -0.101

Value of composite z-score reported for the compound `O=C1O[C@H](c2ccccc2)[C@H](c2ccccc2)N2[C@H]1[C@@H](C(=O)O)[C@]1(C(=O)Nc3ccc(C#CC4(O)CCCCCC4)cc31)[C@H]2c1ccc(O)cc1` is -0.0999

Kindly note the recorded composite z-score for `C[C@]1(C(=O)O)c2ccccc2C(=O)N(Cc2ccc(OC(F)(F)F)cc2)[C@H]1c1ccc(CO)cc1` , which is 0.109

Sample `Cc1cccc([C@H]2C[C@H]3C(I)=C[C@@H]2C(=O)[C@]32CO2)c1` ; composite z-score observed: -0.112

So, `COC(=O)[C@@]1(Cc2ccc(F)cc2)[C@H]2c3cc(C(=O)N4CCCC4)n(C)c3C[C@H]2CN1C(=O)c1ccccc1` ? Its composite z-score was 0.295
